Task for the reader: assign each of the following compounds its reported melting point.

The value of melting point measured for the compound CCOC(=O)C(c1ccc(NC(=O)[C@H](CC(C)C)NC(=O)Cc2ccc(NC(=O)Nc3ccccc3C)cc2)cc1)C1CCCC1 (some centres unmarked) turned out to be 186 to 189 °C

Recorded result, `Cc1ccccc1NC(=O)Nc1ccc(CC(=O)N[C@@H](CC(C)C)C(=O)Nc2ccc(-c3nnn[nH]3)cc2)cc1` , melting point: 255 to 257 °C

`Cc1ccccc1NC(=O)Nc1ccc(CC(=O)N[C@@H](CC(C)C)C(=O)Nc2ccc(CC(=O)O)cc2)cc1` has a reported melting point of 206 °C

For `Cc1ccccc1NC(=O)Nc1ccc(CC(=O)N[C@@H](CC(C)C)C(=O)Nc2ccc(C(=O)O)c(Cl)c2)cc1` the compound record lists melting point as 178 to 180 °C

Query `Cc1ccccc1NC(=O)Nc1ccc(CC(=O)N[C@@H](CC(C)C)C(=O)Nc2ccc(C(=O)O)c(Nc3ccccc3)c2)cc1` yields melting point of 164 to 169 °C

The recorded melting point for `Cc1ccccc1NC(=O)Nc1ccc(CC(=O)N[C@@H](CC(C)C)C(=O)Nc2ccccc2CC(=O)O)cc1` is 186 to 190 °C

Consider `Cc1ccccc1NC(=O)Nc1ccc(CC(=O)N[C@@H](CC(C)C)C(=O)Nc2cc(C(=O)O)cc([N+](=O)[O-])c2)cc1` . Its measured melting point is 188 to 190 °C

Sure, the documented melting point for `Cc1ccccc1NC(=O)Nc1ccc(CC(=O)N[C@@H](CC(C)C)C(=O)Nc2ccc(C(=O)O)cc2Cl)cc1` is 154 to 158 °C

Reported melting point of `Cc1ccccc1NC(=O)Nc1ccc(CC(=O)N[C@@H](CC(C)C)C(=O)Nc2nc(CC(=O)O)cs2)cc1` : 178 to 180 °C

Field melting point (entry `CCOC(=O)c1ccc(NC(=O)[C@H](CC(C)C)NC(=O)Cc2ccc(NC(=O)Nc3ccccc3C)cc2)c(OC)c1` ) reads 139 to 141 °C

Notebook: Cc1ccccc1NC(=O)Nc1ccc(CC(=O)N[C@@H](CC(C)C)C(=O)Nc2ccc(C(C(=O)O)C3CCCC3)cc2)cc1 (some centres unmarked) , melting point read as 206 to 208 °C

Lab book: melting point of `Cc1ccccc1NC(=O)Nc1ccc(CC(=O)N[C@@H](CC(C)C)C(=O)Nc2nnc(CC(=O)O)s2)cc1` noted as 187 to 189 °C

Given item `COC(=O)c1cc(Cl)c(NC(=O)[C@H](CC(C)C)NC(=O)Cc2ccc(NC(=O)Nc3ccccc3C)cc2)cc1Cl` , the value recorded as its melting point is 204 to 205 °C

Consider `Cc1ccccc1NC(=O)Nc1ccc(CC(=O)N[C@@H](CC(C)C)C(=O)Nc2cccc(CC(=O)O)c2)cc1` . Its measured melting point is 178 to 181 °C

The compound listed as `COC(=O)c1ccc(NC(=O)[C@H](CC(C)C)NC(=O)Cc2ccc(NC(=O)Nc3ccccc3C)cc2)cc1` shows melting point equal to 250 to 252 °C

get_value(item= `COc1cc(C(=O)O)ccc1NC(=O)[C@H](CC(C)C)NC(=O)Cc1ccc(NC(=O)Nc2ccccc2C)cc1` , readout=melting point) returns 138 to 142 °C

For reference, reported melting point for `COC(=O)Cc1ccc(NC(=O)[C@H](CC(C)C)NC(=O)Cc2ccc(NC(=O)Nc3ccccc3C)cc2)cc1` stands at 222 °C

Recorded melting point (compound `COC(=O)c1ccccc1NC(=O)[C@H](CC(C)C)NC(=O)Cc1ccc(NC(=O)Nc2ccccc2C)cc1` ): 170 °C

Form field melting point, entry `Cc1ccccc1NC(=O)Nc1ccc(CC(=O)N[C@@H](CC(C)C)C(=O)Nc2cccc(C(=O)O)c2)cc1` : 220 °C

Input `Cc1ccccc1NC(=O)Nc1ccc(CC(=O)N[C@@H](CC(C)C)C(=O)N(C)c2nc(CC(=O)O)cs2)cc1` . Output melting point: 172 to 174 °C

// sample `Cc1ccccc1NC(=O)Nc1ccc(CC(=O)N[C@@H](CCCCNC(=O)OCc2ccccc2)C(=O)Nc2ccc(C(=O)OCc3ccccc3)cc2)cc1` , its melting point was 188 to 189 °C

Entry under test: `Cc1ccccc1NC(=O)Nc1ccc(CC(=O)N[C@@H](CC(C)C)C(=O)Nc2ccc(C(=O)O)c(Oc3ccccc3)c2)cc1` . Its melting point was 158 to 160 °C

Documented melting point of `Cc1ccccc1NC(=O)Nc1ccc(CC(=O)N[C@@H](CC(C)C)C(=O)Nc2ccc(C(=O)O)cc2)cc1` : 219 to 223 °C

Reported melting point ( `Cc1ccccc1NC(=O)Nc1ccc(CC(=O)N[C@@H](CCCCN)C(=O)Nc2ccc(C(=O)O)cc2)cc1.O=C(O)C(F)(F)F` ) = 168 to 169 °C

For reference, reported melting point for `Cc1ccccc1NC(=O)Nc1ccc(CC(=O)N[C@@H](CC(C)C)C(=O)Nc2ccccc2C(=O)O)cc1` stands at 190 °C

Reported melting point ( `COC(=O)c1cccc(NC(=O)[C@H](CC(C)C)NC(=O)Cc2ccc(NC(=O)Nc3ccccc3C)cc2)c1` ) = 220 °C

Notebook: `Cc1ccccc1NC(=O)Nc1ccc(CC(=O)N[C@@H](CC(C)C)C(=O)Nc2cc(Cl)c(C(=O)O)cc2Cl)cc1` , melting point read as 185 to 188 °C

Sample `CCOC(=O)c1ccc(NC(=O)[C@H](CC(C)C)NC(=O)Cc2ccc(NC(=O)Nc3ccccc3C)cc2)c(Cl)c1` ; melting point observed: 163 to 165 °C

compound Cc1ccccc1NC(=O)Nc1ccc(CC(=O)N[C@@H](CC(C)C)C(=O)NC2CCC(C(=O)O)CC2)cc1 (some centres unmarked) , melting point observed: 175 °C (dec.)

###

Hi there, I'd appreciate the recorded melting point for every entry that follows.

// `COCCCN(CC(=O)Nc1ccc(C(=O)O)cc1)C(=O)Cc1ccc(NC(=O)Nc2ccccc2C)cc1` : melting point value = 210 to 218 °C

For reference, reported melting point for `COC(=O)c1ccc(NC(=O)[C@H](CC(C)C)NC(=O)Cc2ccc(NC(=O)Nc3ccccc3C)cc2)cc1Oc1ccccc1` stands at 191 to 195 °C

Entry `CCOC(=O)Cc1csc(N(C)C(=O)[C@H](CC(C)C)NC(=O)Cc2ccc(NC(=O)Nc3ccccc3C)cc2)n1` — recorded melting point = 125 to 130 °C

Input `COCCCN(CC(=O)Nc1ccc(C(=O)OC)cc1)C(=O)Cc1ccc(NC(=O)Nc2ccccc2C)cc1` . Output melting point: 197 to 198 °C

Entry under test: `COC(=O)Cc1ccccc1NC(=O)[C@H](CC(C)C)NC(=O)Cc1ccc(NC(=O)Nc2ccccc2C)cc1` . Its melting point was 218 °C

Please fill in: melting point reported for `COC(=O)Cc1cccc(NC(=O)[C@H](CC(C)C)NC(=O)Cc2ccc(NC(=O)Nc3ccccc3C)cc2)c1` = 200 °C

Notebook: `COC(=O)c1ccc(NC(=O)[C@H](CC(C)C)NC(=O)Cc2ccc(NC(=O)Nc3ccccc3C)cc2)cc1Nc1ccccc1` , melting point read as 205 to 206 °C
